- PROCEDURE TEXT: Cyclic voltammetry in acetonitrile
- Assay type: physicochemical
- SETTINGS: Tables S1/S2, every redox process listed, acetonitrile, vs SCE, 100 mV.s-1
Please use Met for E1/2 under -0.7 V and Not met for everything else, ties included.

The following compounds have reported results that may help.
compound="Nc1ccc(NC2=CC(=O)c3ccccc3C2=O)cc1 [Compound 3a]" cat=Met
compound="O=C1C=C(Nc2ccc(O)cc2)C(=O)c2ccccc21 [Compound 3b, 2-(4-aminophenol)-1,4-naphthoquinone]" cat=Met

Q: Please state whether E1/2 is below -0.7 V for CCN(CC)C1=CC(=O)C(=O)c2ccccc21 [Compound 4f, 4-(diethylamine)-1,2-naphthoquinone]
Ans: Not met

Q: Please state whether E1/2 is below -0.7 V for CCN(CC)C1=CC(=O)c2ccccc2C1=O [Compound 3f, 2-(diethylamine)-1,4-naphthoquinone]
Ans: Met

Q: Please state whether E1/2 is below -0.7 V for O=C1C=CC(=O)c2ccccc21 [Compound 1, 1,4-naphthoquinone, reference compound]
Ans: Not met

---

- SYSTEM NAME: acetylcholinesterase (AChE) (Homo sapiens)
- Sequence (P22303 32-614): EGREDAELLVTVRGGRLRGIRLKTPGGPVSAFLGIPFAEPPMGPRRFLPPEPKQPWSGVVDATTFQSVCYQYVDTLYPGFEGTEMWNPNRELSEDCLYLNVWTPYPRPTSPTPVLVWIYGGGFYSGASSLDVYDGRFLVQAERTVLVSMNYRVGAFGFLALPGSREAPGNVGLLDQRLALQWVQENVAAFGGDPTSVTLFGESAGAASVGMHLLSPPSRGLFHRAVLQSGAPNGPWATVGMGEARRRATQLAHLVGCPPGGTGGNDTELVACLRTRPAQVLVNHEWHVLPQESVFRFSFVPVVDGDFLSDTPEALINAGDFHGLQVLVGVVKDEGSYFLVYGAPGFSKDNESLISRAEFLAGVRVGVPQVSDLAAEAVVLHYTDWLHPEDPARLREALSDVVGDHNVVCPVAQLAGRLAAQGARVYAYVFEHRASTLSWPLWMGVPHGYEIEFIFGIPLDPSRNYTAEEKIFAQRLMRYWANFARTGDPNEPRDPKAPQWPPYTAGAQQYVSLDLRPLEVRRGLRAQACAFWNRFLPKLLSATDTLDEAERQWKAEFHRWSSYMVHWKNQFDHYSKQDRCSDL
- PROCEDURE TEXT: AChE inhibition assay (Ellman's colorimetric method)
- Format: biochemical
- SETTINGS: read-out: Inhibiton50µM (μM±SD)
REPORTED ENDPOINT: inhibition at 50 µM (%)
Provide only the numeric value, understood in %.

In the examples that follow, each entry is paired with its recorded inhibition at 50 µM.
smiles_notation=N#Cc1ccc(NC2=CC(=O)c3ccccc3C2=O)cc1 reported_endpoint="inhibition at 50 µM" val=25.8
smiles_notation=Nc1ccc(NC2=CC(=O)C(=O)c3ccccc32)cc1 reported_endpoint="inhibition at 50 µM" val=51.7
smiles_notation=CCN(CC)C1=CC(=O)c2ccccc2C1=O reported_endpoint="inhibition at 50 µM" val=47.9
smiles_notation=CCCCNC1=CC(=O)C(=O)c2ccccc21 reported_endpoint="inhibition at 50 µM" val=62.4
smiles_notation=O=C1C=C(Nc2ccccc2O)c2ccccc2C1=O reported_endpoint="inhibition at 50 µM" val=85.3

Reported inhibition at 50 µM of Nc1ccc(NC2=CC(=O)c3ccccc3C2=O)cc1 : 23.4

Reported inhibition at 50 µM of O=C1C=C(Nc2ccc(O)cc2)c2ccccc2C1=O : 74.1

Reported inhibition at 50 µM of O=C1C=C(Nc2ccc(Nc3ccccc3)cc2)c2ccccc2C1=O : 75.3

---

- System: HepG2 human hepatocyte carcinoma cell line
- PROCEDURE TEXT: MTT cytotoxicity assay against HepG2 cell line
- Format: cell-based
- SETTINGS: HepG2, 24 h incubation, mean ± SD, listed as 1,2-NQ, read-out: EC50 (cytotoxicity, concentration leading to the death of 50% of the cells)
REPORTED ENDPOINT: pEC50
Expect pEC50 as a plain number equal to -log10 of the molar concentration.

Reported pEC50 of O=C1C=Cc2ccccc2C1=O : 4.59

---

- PROCEDURE TEXT: Cyclic voltammetry in acetonitrile
- Format: physicochemical
- SETTINGS: first reduction wave, acetonitrile, scan rate 0.100 V·s−1
Listed here are compounds together with their documented ∆E (I).
Provide only the numeric value, understood in mV.

smiles_notation=O=C1C=Cc2ccccc2C1=O val=110
smiles_notation=CCCCNC1=CC(=O)c2ccccc2C1=O val=70

Turning now to a further record.
Reported ∆E (I) of Nc1ccc(NC2=CC(=O)c3ccccc3C2=O)cc1 : 80
